src = ChEMBL document CHEMBL4732114

biological target: Multidrug efflux pump subunit AcrB (Escherichia coli (strain K12)) (UniProt P31224); test: Inhibition of AcrB in multidrug-resistant Escherichia coli BW25113 assessed as potentiation of erythromycin-induced antibacterial activity by measuring erythromycin MIC at 64 ug/ml by checkerboard titration method (reference value: 64 ug/ml); conditions: dose 64.0 µg/ml
Sequence (P31224 whole entry): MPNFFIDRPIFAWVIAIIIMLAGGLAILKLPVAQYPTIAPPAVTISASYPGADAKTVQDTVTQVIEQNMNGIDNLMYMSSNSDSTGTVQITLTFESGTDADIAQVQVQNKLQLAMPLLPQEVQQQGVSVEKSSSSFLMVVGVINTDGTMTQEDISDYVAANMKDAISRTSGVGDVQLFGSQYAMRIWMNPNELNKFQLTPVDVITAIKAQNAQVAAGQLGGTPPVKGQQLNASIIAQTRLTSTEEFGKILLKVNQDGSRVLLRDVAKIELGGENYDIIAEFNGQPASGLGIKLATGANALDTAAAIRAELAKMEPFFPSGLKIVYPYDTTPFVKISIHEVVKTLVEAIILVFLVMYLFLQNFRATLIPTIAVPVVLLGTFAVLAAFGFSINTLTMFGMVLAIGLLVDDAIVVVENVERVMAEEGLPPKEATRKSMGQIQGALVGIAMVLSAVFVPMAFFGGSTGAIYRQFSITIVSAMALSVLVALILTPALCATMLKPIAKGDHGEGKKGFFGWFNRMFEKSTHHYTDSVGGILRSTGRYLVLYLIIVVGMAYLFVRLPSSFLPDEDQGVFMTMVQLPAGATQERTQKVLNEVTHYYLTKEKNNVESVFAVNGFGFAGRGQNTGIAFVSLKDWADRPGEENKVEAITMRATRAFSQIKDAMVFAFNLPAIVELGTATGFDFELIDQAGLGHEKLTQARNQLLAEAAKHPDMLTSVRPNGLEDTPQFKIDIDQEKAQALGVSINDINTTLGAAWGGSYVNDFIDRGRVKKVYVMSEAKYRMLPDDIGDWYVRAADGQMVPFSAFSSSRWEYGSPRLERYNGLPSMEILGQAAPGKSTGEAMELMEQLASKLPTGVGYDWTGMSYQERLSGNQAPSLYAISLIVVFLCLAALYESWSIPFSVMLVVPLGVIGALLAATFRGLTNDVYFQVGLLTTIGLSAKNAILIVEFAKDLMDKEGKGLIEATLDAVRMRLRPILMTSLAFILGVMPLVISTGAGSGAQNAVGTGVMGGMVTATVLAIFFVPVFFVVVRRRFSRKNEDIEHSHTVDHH
parameter_measured: MIC (µg/mL)
# output: bare number, implied unit µg/mL

In the examples that follow, each entry is paired with its recorded MIC.
C=CC(=O)Nc1ccc(COc2cccc3c4c(c(Cn5cnnn5)cc23)CCC(C)(C)O4)cc1; 32
CC1CN(C(=O)c2cc3c(OCc4ccc(Br)cc4)cccc3c3c2CCC(C)(C)O3)CC(C)O1 (centres undefined); 64
CC1(C)CCc2c(-c3nnco3)cc3c(OCc4ccccc4)cccc3c2O1; 32
C[C@@H](Cc1ccc(O)c(O)c1)[C@@H](C)Cc1ccc(O)c(O)c1; 64
Cc1ccc(COc2cccc3c4c(c(-c5nnco5)cc23)CCC(C)(C)O4)cc1; 16

[in] Name the recorded MIC of the item CC1(C)CCc2c(-c3nnco3)cc3c(OCc4ccc(C#N)cc4)cccc3c2O1 in your answer.
[out] 64

[in] Tell us which MIC value is on record for CC1(C)CCc2c(Cn3cnnn3)cc3c(OCc4ccc(OC(F)(F)F)cc4)cccc3c2O1
[out] 64

[in] Identify measured MIC corresponding to CC1CN(C(=O)c2cc3c(OCc4c(Cl)cccc4Cl)cccc3c3c2CCC(C)(C)O3)CC(C)O1 (centres undefined)
[out] 64

[in] Given COc1cccc(COc2cccc3c4c(c(C(=O)O)cc23)CCC(C)(C)O4)c1 , respond with its MIC.
[out] 32
